Reported z-score is given for each of the following compounds.
# Protocol: basal RPMI8226 mitochondrial membrane potential changes, profiling panel, cell-based, JC-1 fluorescence, 24 h, 100 nL compound (AID 1169); further: test concentration not given here
# Stated conditions: RPMI8226 myeloma, JC-1 mitochondrial potential fluorescence, higher = more signal
Could you respond with only the numeric value?

For record COC(=O)[C@@]1(Cc2ccccc2)N=C(c2ccc(OCCCO)cc2)O[C@H]1c1ccccc1 the listed z-score is -1.1

z-score measured on COc1ccc(C#Cc2ccc3c(c2)[C@]2(C(=O)N3)[C@H](C(=O)Nc3nc4ccccc4s3)[C@H]3C(=O)O[C@H](c4ccccc4)[C@H](c4ccccc4)N3[C@@H]2c2ccc(O)cc2)cc1 = -1.02

// z-score value for O=C(c1ccccc1)N1C(=O)[C@@]2(Cc3ccccc31)N=C(c1ccc(OCCCO)cc1)O[C@H]2c1ccccc1 : -1.19

Summary for this compound, CCOC(=O)C[C@H]1[C@H](OC(=O)c2cc3ccccc3oc2=O)[C@@H](NC(=O)c2ccccc2)c2cc(OCCCO)ccc2N1C(=O)c1ccc2ccccc2n1 : z-score is -0.311

Continuing:
Memo: CN(C)C(=O)[C@]1(Cc2ccccc2N=[N+]=[N-])N=C(c2ccc(OCCCO)cc2)O[C@@H]1c1ccccc1N=[N+]=[N-] , reported z-score: -0.946

Data point: NCCCCCNC(=O)[C@@H]1C[C@@H]2C(=O)N[C@@H](Cc3ccccc3)C(=O)N2[C@@H]1c1ccc(O)cc1 ; z-score = 0.00631

What the record says about CCOC(=O)C1=C[C@@H](C(C)(C)C)N(S(=O)(=O)c2ccc(C)cc2)[C@H]1c1ccc(F)cc1 : z-score is -1.03

Source listed as PubChem BioAssay.
